assay: soluble on expression in E. coli; label from the status in PepcDB or PDB records
measurement_label: soluble on expression in E. coli

// solved cases for soluble on expression in E. coli follow
**Q:** Please give measured soluble on expression in E. coli of the following entry: MGSDKIHHHHHHMFRSMRTSHERVHFTAKARRASTMAAPQNKVIVTCAVTGGIHTPTMSPHLPITARDIEDESVAAAEAGAAIVHLHARKPENGQPSQDPALFLEFLPRIAARSDVVINLTTGGAPNMLVEERLQPALQLKPEVASLNMGSMNFGLYPMIARHKTFKYDWERPYLEGSEDRVFRNTFKEIRYILESCADNGTRFEIECYDTSHLYTAAHFIDRGILKPPFFIQSVFGLLGGIGTHPDDVMHMRRTAERLFGKDYYWSVLGAGRSQMPIASMAAAMGGNVRVGLEDSLWEDRGRLSRSNADQVRRVVGILKSLNLEVATPDEARDMLQLKGRDAVAF
**A:** not soluble

**Q:** Quote soluble on expression in E. coli reported for MGSDKIHHHHHHMKTLQTHRVLQALIGHFTPFLESGITELMINTEQELWLYKVNNTREKRGHALFDKAFLLRFCEQLASFRGLFFDEEHPTLNCSIPFTRYRVSANHFSITTNNQITLNIRVPRLKPLSLEDFTFKASDPKSLKDLALKGHNILISGETSSGKTSLLNALLDCVNKDERVVSVEDSQELDLKAFSNCVGLLVGKQENTRFNYEDALNMAMRLNPDRLIVGEIDTRNAALFLRLGNTGHKGMLSTIHANSAQNTLEALSLNLSMRYMYSLDKDLMRAYFKSAIDVIVHVNRINNERQIAEVLWTKEL please.
**A:** not soluble

**Q:** Read off the recorded soluble on expression in E. coli for MNVWSKLLTALRGGANEAGEALVDSQALRILDQEIRDADQELRKSKEALAEIMARQKLAAERANGSAAKIAEYESYALKALEAGNEALAQEVAQKIANLENDLAVEREQADGFAASVAQLRKAVTQAEGNIKHLKQQVDTVKATESVQKAQQAVAQRYGGSQSKLHTAVESLERIKQKQAERAAKMDAAAELANTSSPDDALDAKLREAGIVAGSTSADSVLARLKDRSKSLEHHHHHH
**A:** not soluble

**Q:** Give the reported soluble on expression in E. coli for this sequence. MDWMPLGDYETFRHWSGKPRAWGPQESGWRAWFGGKIVDGLCEVLDEHLAVRRRGVPAAIGCVPWLSSEAVAETLLALSVFCVVIDKGTSFPSRLRNPDKGFPNVALLRLRDMAPSEHGSRCSSARGRLCLSMS
**A:** not soluble

**Q:** Kindly indicate its recorded soluble on expression in E. coli. Item: MDPVRILRHLITGQSAIKRAFPPATLTVIEQAIAHSETLHGGEIVFAVEASLDLPLLLQNQIIRERAIDVFSLLRVWDTEHNNGVLIYLLMADHDVEIVADRGIHTKVDQTIWETACDTMKTTFRHGQFEQGVLAGIDLSTRVLQQFFPASTGKRKSELPDRPVVLLEHHHHHH
**A:** not soluble

Parameter requested: soluble on expression in E. coli. Apply to each item below.
1. MVGPARPQIVLFGSSIVQMSFGHGGWGAILSEVYARKADIILRGYYGWNSSRALEVVDQVFPKDAAVQPSLVIVYFGGNDSMAPHSSGLGPHVPLTEYVDNMKKIALHLQSLSDFTRIIFLSSPPVDEAKVRQNQSPYLSEVIRTNDLCKTYSDACVELCQELGLEVVDLFSTFQKADDWKTVCFTDGIHLSAQGSKIVAGEILRVVKEAEWHPSLHWKSMPTEFADDSPYDLVSADGKQTVNSSEWTYFWEEQWD
2. AHHHHHHGSPDVYEPIMGAFSLARRLWKMIVEKKGLPTGDDVASLLENLGFERVCTGSGLAVFRNRFVIALLIPRENMIVVDFLSSSGELSDALELIAYYDKEIECYVVEILPSNELEYEENLGIEPVIIDGKTFELRSYPVLGDFKQGKDKVVLKIDREVYELWKESGKLDVCPVCGGHLRWKQGKALCTECGIEVVVDEEH

**A:**
1. soluble
2. soluble

====

assay: soluble on expression in E. coli; label from the status in PepcDB or PDB records
measurement_label: soluble on expression in E. coli

For orientation, consider the following solved cases.
**Q:** Tell us which soluble on expression in E. coli value is on record for MGSDKIHHHHHHMQGVPEHFTDERDYAQFRHLPTLPGIELYHAHICRYAFEPHTHEAFGIGTIDDGAEQFRYRGAKHIAPVDSLVLMNPDELHTGESATEDGWRYRMIYIPPDVLESVSGEKGWWFTDVVRHDPATARQLAMTLAALWQTTDPLASESLLLSLIALFRPHAHIAQRQVVEPFHRFDVVKAYLRENFAHTITLKELAALVSLSPYHFLRQFKTQFHVTPHQMLMAIRLYEAKQMLTRGMAAAHVALAVGLTDQAHLTRTFAQRYGVTPIRYQKQVYPTLR
**A:** not soluble

**Q:** Annotate the sequence MGSDKIHHHHHHMMAEALQRENPSGFEGSVAGLPLTDVIQLKGQNRFSGCIAVEYRERQGMIFFRDGDIIHAEQGKLMGEMALYEIIRWPGGRFNIQPKVTTTSRTIQQSISFLLLEAHRLMDEEQAAVRADEGTRREEAAAPAAVQNRMSAVAERIVRIAGVSYAVLMKKDGTPLEDDSFEAEVLSAKGMSLAGIGSRLGELFGLDEVKSAAVHARGKQILLFEAKNHYVSIAVRGDSSLAHVENEIRSTFAGRK with its measured soluble on expression in E. coli.
**A:** not soluble

**Q:** Query soluble on expression in E. coli for MYSIKMRSSNQDVHISGAETICEFDKIEQTVQRFYNKGFFHENGQPDFLNIKIQKIMEPIQQIKALQIIEDDKANLQHLTQECGVTEQALNQGMTYIKNETVYTGAIILSAISGKRLDSFGQRGIRATHFSFEDINNKGDLNERVTDALAIASCINAHPYVKGELCVSDDLTYTTGYFAAAKIGYHRLFDIKPVNTRYGGRIIFVDDCIDLNHYISFLESTPKQVVYETV
**A:** not soluble

**Q:** Dear colleague, please send me the reported soluble on expression in E. coli for MAHHHHHHMARDYDAGYKLLFAMPEMMRDLLREFIRSDWLRALDYSTLERVSGNYVADNMRQRASDMVWRVDAGDPWGHLYVLLEFQSTIDRYMAPRMAAYTALLHQELVRAGQVLPDRRVPAALSIVLYNGDTPWSACTNIRDVVVSLPNGLAACQLHQQHTLLDINRLSEAQLPDDNLAALLFRIERAADYDTVVSLMIECRMRLRHEPKLKLAFAKTFAALLCGQRGSVLTPDQVFQLMEVDMQVVGANLQRFTHKLREEARQEGEARMLQKLLAERFGSLHASVVQRIEIATPEELERWGIQLLRAEVIEDVFRA when you can.
**A:** soluble

**Q:** Dear colleague, please send me the reported soluble on expression in E. coli for MQRTLGEIMKIYFATGNPNKIKEANIILKDLKDVEIEQIKISYPEIQGTLEEVAEFGAKWVYNILKKPVIVEDSGFFVEALNGFPGTYSKFVQETIGNEGILKLLEGKDNRNAYFKTVIGYCDENGVRLFKGIVKGRVSEEIRSKGYGFAYDSIFIPEEEERTFAEMTTEEKSQISHRKKAFEEFKKFLLDRI when you can.
**A:** soluble

Okay, here is my list. What is soluble on expression in E. coli for each of these?
1. MGSDKIHHHHHHMKNNFLVNFILLHGYSLDNSSLMFGKMGYSLILFEYSHYFKDALAEKHAFELLQEVLASPMKSNTFNEGKMGIAWSLIHLIEKEYIEADYLELYGQEHKEIVAFIKQLKTDMNNIVSKNDAISFLIASKSYIQESDFDEILPNLIENLYDYLKQIPKSLFERNLFYYHATKMLCLYNLYEELSIRGETLIDIIVQTHKKLISDKHVCTNISFGVNLLQYGLCHKRKDIIKLANAIIKCYFSNMVLETLNLKESIDAIYNLNKLQLLNKESEWTSLKKQLSSLLFNKESYLYKENRLTLSRLKGGIPQLLLMECLNFQDIKSTGHYIMLK
2. MGSDKIHHHHHHMSNAKRLLVSDMKMGVDISENELLRQSEGLLQRLLFDHTTQRNIFWATDDYTTLGDAYKYDAPITTDSITGEHDTVIQPRVLKSKEEQANRTKDKAEVFTPSWVCNAQNNLIDEAWFGRKDVFNIEQPETKTWIATTEPITFPEGKTWKDYVCSTRMEITCGEAPYLVSRYDTTTGEFIPIPQRIGMLDRKLRIISENTSSTGEWLKMAQKAYKNIYAYEWQGDNLLLAREALLITFIEYYEEKFGKRPLDKSIEYIAYIISWNVWQMDGLKGVVPNSCTHGVSVLPDDLFESMEELILCPGCQNESIKKHNGTYCLIRDWGCKDPKTGENNRKIRFVDLIKNNI
3. SNASKEKREKLEAYQHLFYLLQTNPTYLAKLIFQMPQNKSTKFMDSVIFTLYNYASNQREEYLLLRLFKTALQEEIKSKVDQIQEIVTGNPTVIKMVVSFNRGARGQNALRQILAPVVKEIMDDKSLNIKTDPVDIYKSWVNQMESQTGEASKLPYDVTPEQALAHEEVKTRLDSSIRNMRAVTDKFLSAIVSSVDKIPYGMRFIAKVLKDSLHEKFPDAGEDELLKIIGNLLYYRYMNPAIVAPDAFDIIDLSAGGQLTTDQRRNLGSIAKMLQHAASNKMFLGDNAHLSIINEYLSQSYQKFRRFFQTACDVPELQDKFNVDEYSDLVTLTKPVIYISIGEIINTHTLLLDHQDAIAPEHNDPIHELLDDLGEVPTIESLIGESS
4. SNANFNRFTQRAKKAIDLAFESAKSLGHNIVGSEHILLGLLREEEGIAAKVLSKVGFTEAYLEGKIVDMEGKGEEISEDIVLSPRSKQILELSGMFANKLKTNYIGTEHILLAIIQEGEGIANKILNYAGVNDRTLAQLTIDMMG
5. MGSDKIHHHHHHMAVKTIRTLAHFITACSEIKVKDDHTLFYRGHASDIYTPFPTIFRNQNDDPKKSRYIESEGELFHNLVTQCPEEFKDCTSTFDFLVKMQHYGLPTRLLDITSNPLVALYFACCTLIPESTKDKNAKNGQVLVYQVPNEEIKYYNSDTVSVISNLARVNTSFNFTDEEDRERFLHSIQAEKPYFKPYIKEAHLHSVICVKPKLDNRRIVKQSGAFFLFGMGKNKTDSIRISDKYRPDIKHIDIPKSSKETLLRELATLSISEATLFPEIDNVARFLKKEVKIKSLVVEEIEEEKLGNEISVAYQEFILNSLVLNTDLLEQIQHNSADRAMLGLYPELLQKAIIESQENYNEIALKLLVEEDSADKFAKNIFSKLKHKLEELS

**A:**
1: not soluble; 2: not soluble; 3: soluble; 4: soluble; 5: not soluble
